meta.source: the supplement of paper PMC8728848

Task for the reader: assign each of the following binders its reported glycan array binding signal (z-score).
- test_system: Fuc(a1-2)Gal(b1-4)Fuc(a1-3)]GlcNAc(b1-2)Man(a1-3)[Fuc(a1-2)Gal(b1-4)[Fuc(a1-3)]GlcNAc(b1-2)Man(a1-6)]Man(b1-4)GlcNAc(b1-4)GlcNAc
- measurement_protocol: glycan array binding signal (z-score within array); higher = stronger binding
- assay_setup: glycan notation: IUPAC condensed, linker removed
Many of the other results were omitted from the sample, so the strongest signals are more common in it than they were.
Answer with a bare number; do not write a unit.

For LFA (Limax flavus) (protein) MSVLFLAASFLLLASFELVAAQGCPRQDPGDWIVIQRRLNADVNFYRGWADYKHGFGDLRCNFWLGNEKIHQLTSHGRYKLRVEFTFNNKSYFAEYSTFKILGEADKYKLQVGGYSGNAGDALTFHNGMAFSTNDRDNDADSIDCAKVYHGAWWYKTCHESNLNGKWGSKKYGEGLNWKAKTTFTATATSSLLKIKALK , what is its reported glycan array binding signal (z-score)? 1.54

Now give it for XTP3-B-MRH1 (Homo sapiens), Q96DZ1 (protein) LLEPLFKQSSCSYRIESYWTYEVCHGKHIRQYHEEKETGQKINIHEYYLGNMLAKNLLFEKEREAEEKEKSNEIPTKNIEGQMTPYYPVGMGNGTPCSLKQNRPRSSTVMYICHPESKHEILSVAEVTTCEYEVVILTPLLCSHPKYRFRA too. 3.43

Now give it for DrGal3 (Danio rerio) (protein) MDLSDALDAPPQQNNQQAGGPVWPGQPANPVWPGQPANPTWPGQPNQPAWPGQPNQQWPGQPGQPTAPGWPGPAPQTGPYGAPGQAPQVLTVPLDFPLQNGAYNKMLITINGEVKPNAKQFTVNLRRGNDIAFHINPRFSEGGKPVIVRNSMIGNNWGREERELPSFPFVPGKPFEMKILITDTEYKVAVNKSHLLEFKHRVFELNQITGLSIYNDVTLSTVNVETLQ too. -0.125

Now give it for Clec2 (Mus musculus), Q9JL99 (protein) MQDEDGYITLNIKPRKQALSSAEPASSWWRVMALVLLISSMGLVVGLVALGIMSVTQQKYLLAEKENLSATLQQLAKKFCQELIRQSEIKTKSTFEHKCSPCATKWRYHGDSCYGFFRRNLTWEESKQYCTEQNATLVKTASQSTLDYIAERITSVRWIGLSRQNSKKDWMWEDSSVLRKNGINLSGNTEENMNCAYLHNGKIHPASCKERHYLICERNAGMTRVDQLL too. 3.96

Now give it for CD34 (Homo sapiens), P28906 (protein) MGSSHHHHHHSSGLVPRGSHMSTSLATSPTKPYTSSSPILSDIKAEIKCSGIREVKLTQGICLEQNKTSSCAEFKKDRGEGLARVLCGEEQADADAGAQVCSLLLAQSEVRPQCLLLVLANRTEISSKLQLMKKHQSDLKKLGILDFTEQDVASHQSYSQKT too. 1.89

Now give it for GSL-I (Griffonia simplicifolia) (protein) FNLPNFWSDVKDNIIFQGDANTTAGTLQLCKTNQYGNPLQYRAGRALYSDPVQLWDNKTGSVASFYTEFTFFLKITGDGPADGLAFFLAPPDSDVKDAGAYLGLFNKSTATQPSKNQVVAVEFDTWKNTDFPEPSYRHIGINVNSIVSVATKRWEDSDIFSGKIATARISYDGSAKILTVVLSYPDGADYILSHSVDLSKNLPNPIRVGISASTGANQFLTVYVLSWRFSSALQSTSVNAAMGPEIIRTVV too. 0.367

Now give it for CC1G-11630 (Coprinopsis cinerea), A8P462 (protein) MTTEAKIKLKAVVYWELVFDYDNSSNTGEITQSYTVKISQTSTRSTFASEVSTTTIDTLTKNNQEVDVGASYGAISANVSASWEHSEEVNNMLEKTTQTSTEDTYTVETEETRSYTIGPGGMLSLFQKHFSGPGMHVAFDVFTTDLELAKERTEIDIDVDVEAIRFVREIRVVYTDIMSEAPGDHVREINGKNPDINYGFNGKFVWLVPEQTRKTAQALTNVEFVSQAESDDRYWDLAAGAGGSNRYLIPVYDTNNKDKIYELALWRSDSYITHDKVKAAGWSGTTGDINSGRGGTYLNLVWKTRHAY too. 1.38

Now give it for WGA (Triticum vulgare) (protein) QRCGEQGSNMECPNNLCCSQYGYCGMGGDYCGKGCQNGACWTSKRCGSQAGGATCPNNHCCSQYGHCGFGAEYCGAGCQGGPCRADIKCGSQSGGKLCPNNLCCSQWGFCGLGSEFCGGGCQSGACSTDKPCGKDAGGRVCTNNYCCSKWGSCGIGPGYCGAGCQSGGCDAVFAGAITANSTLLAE too. -0.173

Now give it for LlpA1 (Pseudomonas fluorescens), Q4KHC3 (protein) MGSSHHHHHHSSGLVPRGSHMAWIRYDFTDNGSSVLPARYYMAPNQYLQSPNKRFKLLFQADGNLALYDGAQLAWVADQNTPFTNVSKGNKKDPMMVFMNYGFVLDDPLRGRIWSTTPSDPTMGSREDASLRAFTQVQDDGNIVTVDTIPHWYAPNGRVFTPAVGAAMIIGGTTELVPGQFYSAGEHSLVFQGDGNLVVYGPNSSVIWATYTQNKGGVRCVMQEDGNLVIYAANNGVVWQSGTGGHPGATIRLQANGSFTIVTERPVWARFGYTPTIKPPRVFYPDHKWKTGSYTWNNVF too. 3.1
